From: the DeepSol protein solubility set

test: soluble on expression in E. coli; label from the status in PepcDB or PDB records
measuredProperty: soluble on expression in E. coli

Here is how some sequences turned out for soluble on expression in E. coli.
{"sequenceInput": "MAEVAPNSTLYINNLNEKIKIDELRKSLVAVFKQFGEIVSVMCFRTLKMRGQAHVIFKELPAASAAREALNGFPFYEKPMRIQFAREDSDVVAQEKGTYIKREPKYLSEKILKKPKSRKKENGGDGPAPPNKILFCTNLPDSATAEMLEIMFNQFAGLKDIRMVPNRPGIAFVEFDTDSLAIPARTTLNNFKISAEHTMRVDYAKK", "result": "soluble"}
{"sequenceInput": "MAGFEIQRVESKFFDLDDIIAKSDSTSCTFEIGDLNPDFFQEMLGVSKPTQNADGYGVDAPYWLLESVRSSFSIQLPKAYSVNMQNVLNADSKKLNLSGLQQHFYGNGMQLCRLMKGENPDGALSLARCLVSTLTQRLGEIVSTATHLQSKGEKFDSLETKVFLEGKRCKEDIDTWLRQDNKCSSKKRKRLSL", "result": "not soluble"}
{"sequenceInput": "MKYPTIIDSQQLFREPDHPLKAGLDPKCRSTKPLCPDTFAKVMKTIDTFIFDADGVLWLGESVMPGSPRLIDYLVKHNKQIIVLTNNATKSRAVYAKKLAKLGYNSSKMNKNNLVNPAAVVADTLHRAGLDGKRVYLIGEQGLRDEMDELGIEYFGHGPEKKQDEADGSGAFMYDIKLEENVGAVVVGYEKHFDYIKMMKASNYLREEGVLFVATNEDETCPGPNPEVVIPDAGPIVAAIKCASGRDPLTVGKPCTPAFNYIKRKWNINPSRTMMIGDRTNTDVKFGRDHGMKTLLVLSGCHQIEDIIENQMNERDDMVPDYVAPCLGALVPERI", "result": "not soluble"}
{"sequenceInput": "LYLEQSDIEGHIGVFGSTGSGKTTTLATIACGAAEAGLPVVVADWHGEYQRLVGGGGCRPRVIDPGREGGVNPLSLGWDYSVKTALLASALGLTEPQHYMLLKLLEEHEPRSLIELHSMVEDVEENSRWDREVKRGLMRRLGPLASRAGRSLVEGEGPPIGGRGLYIVDTGSIGNVQLRKTYSILLAAYLQYKAYSRELGPLLLVVDEAHNMFDGEESFPSIMMAESRKFGLYIALATQNPHLLPLRAVSNTNTKIVHSLRWWRDLESIASALSLPRETASKLPHLGRGEAVVYAPSLGYPVLAKIVPPE", "result": "not soluble"}
{"sequenceInput": "MPRTHGYAPIGKRCHGKCNWHARGRINVIGALIGKCLLTVGLFKNNIDADTFLGWTIHDLLPKLPPASIVVMDNATFRKRQDIQNVITRGGHTLEYLPAYSPDLNPIEHKWAQTKAVRKQQNQTVEQLFKIESFYVTLEHHHHHH", "result": "soluble"}
{"sequenceInput": "MGSRASTLLRDEELEEIKKETGFSHSQITRLYSRFTSLDKGENGTLSREDFQRIPELAINPLGDRIINAFFSEGEDQVNFRGFMRTLAHFRPIEDNEKSKDVNGPEPLNSRSNKLHFAFRLYDLDKDDKISRDELLQVLRMMVGVNISDEQLGSIADRTIQEADQDGDSAISFTEFVKVLEKVDVEQKMSIRFLHKLAAALEHHHHHH", "result": "soluble"}
{"sequenceInput": "MGHHHHHHSHMANSAGSMANSAGSDKGEQYTLAVGHSLPPALESKLNEIDEISVKTFAKPEEAVDEGKADAYLNVPKEFDSYVNSMTPFKVDVYGNSIDQGSSNAMQLVQSALDQYKNEIVQQRLTNKHIDQSVIQPFTIQQKEADEEKGTSAI", "result": "not soluble"}
{"sequenceInput": "MADIVQLKENGVVKYMKTHADAIDGVEGKLVKAVGNETVLGTKNFQDGIQIGGKSVSVNAKPTYEVVKDYWDGTGAYLTESQSVTISNSSNVDEIVLIFSRYNDNGGGIVHSIPVTPNITKLKYELPAVAWVGSASTDPTIAYKKISISKSGTSLVITGDTANTLNEANKKIVFREIGVMRRK", "result": "not soluble"}
{"sequenceInput": "MLKINVKYQLKNTLIRINIDDTEPKIYAVRGPSGIGKTTVLNMIAGLRKADEAIIEVNGQLLTDTAKNVNVKIQQRRIGYLFQDYQLFPNMTVYKNITFMAEPSEHIDQLIQTLNIDHLMKQYPMTLSGGEAQRVALARALSTKPDLILLDEPFSSLDDTTKDESITLVKRIFNEWQIPIIFVTHSNYEAEQMAHEIITIG", "result": "not soluble"}
{"sequenceInput": "MILLDTNVISEPLRPQPNERVVAWLDSLILEDVYLSAITVAEMRLGVALLLNGKKKNVLHERMEQSILPLFAGRILPFDEPVAAIYAQIRSYAKTHGKEIAAADGYIAATAKQHSMTVATRDTGSFFAADVAVFNPWHLEHHHHHH", "result": "soluble"}

*Q* Look up soluble on expression in E. coli for this sequence: MLLFSAFLIFGFSIGFSEEASCRHPHERFIGTRCYAFVSKKHTYNTAKEYCDSHGYSLATVDNAITSNFLASSAATEFGSNNGQFWIGLSRKKDYELFNWDDGTIVSYTNFEAGFPNKQDFVAENVRNGRWQTLAEHKELEFVCSYDPTATTSAAPTTIPPTTTTTRAPTTTTVRKTTQTTATTMTTPKPTTTVSTTTTTTVPPTTTPKACPQGFVLFEPTQKCYIVLVYGNDSDYPDVPDDAPFLTRENQRCAKYGATVATIHSSDLNDLFRSLIYERFNDTRYATIGLRNIDMKTISGKWQWFDGTSPDYLNFGNMFPKTGDYIAQTSSQGFWVSYTHTAPNEGVVCSKNRKSERGFTGLVDIDQAAIKKLELQTYLK
*A* not soluble

*Q* I would be grateful if you could share the reported soluble on expression in E. coli for MKGDRLADIRTIGVVVLYRPDSSVLDAIASYRHQVHELIVVDNSEEQDHKLHSRLRDRFGATIVGEGRNLGIAAALNRAAREALAEGFDLLLTMDQDSRAEPGMVEQMLACLGSDWRERVGLIAPFHLTGARPAPGGTTPCSDVMTPMTSGCLVNLAAFREVGPFRDDFFIDFVDNEYCLRLRKKGFQVVRANRALLHHRVGDLRRYGPFVATHHSPLRRYYKTRNRCAVFAEYLRDFPVHCLFDLVRLGKEVASILIFEREKTAKLRMMWRGFLDFRRGRFGPYGGLEHHHHHH .
*A* not soluble
